Structures can show the parent of a compound that is named as a salt. Residues, ends and D or L forms follow the SMILES beside them. *: point of attachment. X2 = O=C(N/N=C1/CC[C@@]2(O)[C@H]3Cc4ccc(O)c5c4[C@@]2(CCN3CC2CC2)[C@H]1O5)*; X1 = CN1CC[C@]23c4c5ccc(O)c4O[C@H]2/C(=N\NC(=O)*)CC[C@@]3(O)[C@H]1C5
Reported values: Ki for Kappa-type opioid receptor (Cavia porcellus), one per item.

- COMPOUND: "CN1CCC23c4c5ccc(O)c4O[C@H]2/C(=N\\NC(N)=O)CC[C@@]3(O)C1C5 (some centres not stated) [OXYMORPHONE SEMICARBAZONE HYDROCHLORIDE]"
  Ki: "179 nM"
- COMPOUND: "CC[C@H](C)[C@H](NC(=O)[C@H](CCCN=C(N)N)NC(=O)[C@H](CCCN=C(N)N)NC(=O)[C@H](CC(C)C)NC(=O)[C@H](Cc1ccccc1)NC(=O)N/N=C1/CC[C@@]2(O)[C@H]3Cc4ccc(O)c5c4[C@@]2(CCN3CC2CC2)[C@H]1O5)C(=O)OC (X2-FLRRI-OMe)"
  Ki: "2.2 nM"
- COMPOUND: "CC[C@H](C)[C@H](NC(=O)[C@H](CCCNC(=N)N)NC(=O)[C@H](CCCNC(=N)N)NC(=O)[C@H](CC(C)C)NC(=O)[C@H](Cc1ccccc1)NC(=O)CNC(=O)CNC(=O)[C@@H](N)Cc1ccc(O)cc1)C(=O)OC"
  Ki: "40 nM"
- COMPOUND: "CC(C)CC(NC(=O)C(Cc1ccccc1)NC(=O)N/N=C1/CC[C@@]2(O)C3Cc4ccc(O)c5c4C2(CCN3CC2CC2)[C@H]1O5)C(=O)O (some centres not stated)"
  Ki: "2.8 nM"
- COMPOUND: "CC[C@H](C)[C@H](NC(=O)[C@H](CCCN=C(N)N)NC(=O)[C@H](CCCN=C(N)N)NC(=O)[C@H](CC(C)C)NC(=O)[C@H](Cc1ccccc1)NC(=O)N/N=C1/CC[C@@]2(O)[C@H]3Cc4ccc(O)c5c4[C@@]2(CCN3C)[C@H]1O5)C(=O)OC (X1-FLRRI-OMe)"
  Ki: "9.8 nM"
- COMPOUND: "NC(=O)N/N=C1/CC[C@@]2(O)C3Cc4ccc(O)c5c4C2(CCN3CC2CC2)[C@H]1O5 (some centres not stated) [NALTREXONE SEMICARBAZONE]"
  Ki: "2.6 nM"
- COMPOUND: "CC(C)CC(NC(=O)C(Cc1ccccc1)NC(=O)N/N=C1/CC[C@@]2(O)C3Cc4ccc(O)c5c4C2(CCN3C)[C@H]1O5)C(=O)O (some centres not stated)"
  Ki: "96 nM"
